method-description: Inhibition of nonspecific gene transcription in human PC3 cells transfected with Galpha12QL activator at 100 uM incubated for 19 hrs by PRL-TK luciferase based dual luciferase reporter gene assay
Assay type: cell-based, PC-3
readout-kind: inhibition at 19 h, 100 µM (%)

>  <structure-notation>
O=C(CCCCNC(=O)c1cc(C(F)(F)F)cc(C(F)(F)F)c1)Nc1ccc(Cl)cc1

>  <readout-kind>
inhibition at 19 h, 100 µM

>  <observed-result>
10

$$$$

1: O=C(CONC(=O)c1ccc(C(F)(F)F)cc1)Nc1ccc(Cl)cc1
2: CN(CCNC(=O)c1cc(C(F)(F)F)cc(C(F)(F)F)c1)C(=O)c1ccc(Cl)cc1
3: O=C(CONC(=O)c1cccc(C(F)(F)F)c1)Nc1ccc(Cl)cc1
4: O=C(CONC(=O)c1cc(C(F)(F)F)cc(C(F)(F)F)c1)Nc1ccccc1
Ask: Please put the entries in order of rising inhibition at 19 h, 100 µM. State the ranking by listing the labels in the requested order.
Reply: 1, 2, 3, 4

* * *

method-description: Inhibition of nonspecific gene transcription in human PC3 cells transfected with Galpha12QL activator at 10 uM incubated for 19 hrs by PRL-TK luciferase based dual luciferase reporter gene assay
Format: cell-based, PC-3
readout-kind: inhibition at 19 h, 10 µM (%)

>  <molecule>
O=C(CONC(=O)c1cc(C(F)(F)F)cc(C(F)(F)F)c1)Nc1ccccc1

>  <inhibition at 19 h, 10 µM, %>
33

$$$$

I: CN(CCNC(=O)c1cc(C(F)(F)F)cc(C(F)(F)F)c1)C(=O)c1ccc(Cl)cc1
II: O=C(CONC(=O)c1cccc(C(F)(F)F)c1)Nc1ccc(Cl)cc1
Ask: Param pair: I , II . Output: the one whose inhibition at 19 h, 10 µM is numerically greater. Select an item and report its label.
Reply: II

1: O=C(CC1CCCCN1C(=O)c1cc(C(F)(F)F)cc(C(F)(F)F)c1)Nc1ccc(Cl)cc1 (stereo not drawn)
2: CC(ONC(=O)c1cc(C(F)(F)F)cc(C(F)(F)F)c1)C(=O)Nc1ccc(Cl)cc1 (stereo not drawn)
3: O=C(CONC(=O)c1ccc(C(F)(F)F)cc1)Nc1ccc(Cl)cc1
Ask: Please put the entries in order of rising inhibition at 19 h, 10 µM. State the ranking by listing the labels in the requested order.
Reply: 1, 3, 2

* * *

method-description: Inhibition of rho-mediated gene transcription in human PC3 cells transfected with Galpha12QL activator incubated for 19 hrs by SRE.L-firefly luciferase based dual luciferase reporter gene assay
Assay type: cell-based
condition-description: PC-3, 19 h
readout-kind: IC50

Some compounds with known IC50 results, for comparison:
>  <structure-notation>
CN(CCNC(=O)c1cc(C(F)(F)F)cc(C(F)(F)F)c1)C(=O)c1ccc(Cl)cc1

>  <IC50>
> 1000 µM

$$$$
>  <structure-notation>
O=C(CCCCNC(=O)c1cc(C(F)(F)F)cc(C(F)(F)F)c1)Nc1ccc(Cl)cc1

>  <IC50>
> 100 µM

$$$$
>  <structure-notation>
O=C(CCNC(=O)c1cc(C(F)(F)F)cc(C(F)(F)F)c1)Nc1ccc(Cl)cc1

>  <IC50>
25 to 38 µM

$$$$

As a next step, examine the compound that follows.
Ask: Look up IC50 for this compound: O=C(CONC(=O)c1ccccc1)Nc1ccc(Cl)cc1
Reply: > 100 µM
